In this section we review reported IC50 values for a set of compounds.
- test_system: JAK2 (Homo sapiens (Human))
- Sequence (O60674 849-1124): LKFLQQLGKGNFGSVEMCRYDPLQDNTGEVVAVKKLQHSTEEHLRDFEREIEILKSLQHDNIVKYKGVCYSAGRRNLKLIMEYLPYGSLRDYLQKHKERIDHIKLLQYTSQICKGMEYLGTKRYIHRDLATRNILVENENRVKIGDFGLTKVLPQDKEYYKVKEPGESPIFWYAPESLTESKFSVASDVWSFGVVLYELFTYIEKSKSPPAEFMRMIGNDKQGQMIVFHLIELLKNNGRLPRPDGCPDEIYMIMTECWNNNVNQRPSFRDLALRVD
- assay_info: Jak Biochemical HTRF Assay (JAK2)
- conditions_used: recombinant purified GST-tagged catalytic domain, [ATP] 8.5 μM, [E] 0.052 nM
Please give a number only; it is taken to be in nM.

For orientation, consider the following solved cases.
CCC1(n2nc(Nc3ccc(C(=O)N4CCSCC4)c(C(F)F)c3)c3c(=O)[nH]ccc32)CCN(C(=O)OC(C)(C)C)CC1 = 2.8
CCC1(n2nc(Nc3ccc(C(=O)N4CCCSCC4)c(C)c3)c3c(=O)[nH]ccc32)CCN(C(=O)OC(C)(C)C)CC1 = 1.05
CCc1cc(Nc2nn(C3(CC)CCN(C(=O)OC(C)(C)C)CC3)c3cc[nH]c(=O)c23)ccc1C(=O)N1CCSCC1 = 2.72

Challenge: I would be grateful if you could share the reported IC50 for CCC1(n2nc(Nc3ccc(C(=O)N4CC5(COC5)C4)c(C)c3)c3c(=O)[nH]ccc32)CCN(C(=O)OC(C)(C)C)CC1 .
Response given: 0.43

Challenge: Which IC50 value is on record for CCC1(n2nc(Nc3ccc4c(c3)CN(C(C)(C)C)S4(=O)=O)c3c(=O)[nH]ccc32)CCN(C(=O)OC(C)(C)C)CC1 ?
Response given: 3.4

Challenge: GET /values?readout=IC50&item= CCC1(n2nc(Nc3ccc(S(C)(=O)=O)cc3)c3c(=O)[nH]ccc32)CCN(C(=O)OC(C)(C)C)CC1
Response given: 0.64

Challenge: Suppose we examine the compound CCC1(n2nc(Nc3ccc(C(=O)N4CCOC(=O)C4)c(C)c3)c3c(=O)[nH]ccc32)CCN(C(=O)OC(C)(C)C)CC1 ; what IC50 value has been reported?
Response given: 0.8

----------
- test_system: JAK1 (Homo sapiens (Human), UniProt P23458)
- Sequence (P23458 875-1153): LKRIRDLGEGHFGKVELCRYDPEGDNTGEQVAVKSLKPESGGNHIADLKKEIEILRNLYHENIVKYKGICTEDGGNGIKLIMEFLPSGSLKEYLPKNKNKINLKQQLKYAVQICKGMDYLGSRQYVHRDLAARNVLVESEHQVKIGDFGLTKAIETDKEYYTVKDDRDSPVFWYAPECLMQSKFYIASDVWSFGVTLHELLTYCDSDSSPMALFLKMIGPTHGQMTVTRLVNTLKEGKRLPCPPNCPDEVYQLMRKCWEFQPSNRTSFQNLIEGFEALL
- assay_info: Jak Biochemical HTRF Assay (JAK1)
measurement_type: IC50 (pM)
The response must be a number in pM with no trailing unit.

CCC1(n2nc(Nc3ccc(C(=O)N4C5CCC4COC5)c(C)c3)c3c(=O)[nH]ccc32)CCN(C(=O)OC(C)(C)C)CC1 = 520

Then there is this molecule:
Challenge: Can you look up the measured IC50 of CCC1(n2nc(Nc3ccc(C(=O)N4C[C@H]5C[C@@H](C4)O5)c(C)c3)c3c(=O)[nH]ccc32)CCN(C(=O)OC(C)(C)C)CC1 for me?
Response given: 300

----------
- test_system: JAK1 (Homo sapiens (Human))
- assay_info: Jak Biochemical HTRF Assay (JAK1)
- conditions_used: recombinant purified GST-tagged catalytic domain; HTRF; [ATP] 31.8 μM; [E] 1.405 nM
measurement_type: pIC50
Give only the number. pIC50 is defined as minus log10 of concentration in molar units.

Challenge: If you can, please state the reported pIC50 value of CCC1(n2nc(Nc3ccc(C(=O)N4CC5CCC(C4)O5)c(C)c3)c3c(=O)[nH]ccc32)CCN(C(=O)OC(C)(C)C)CC1 .
Response given: 9.33

Challenge: Item CCC1(n2nc(Nc3ccc(C(=O)N4CCSCC4)c(C)c3)c3c(=O)[nH]ccc32)CCN(C(=O)OC(C)(C)C)CC1 has what recorded pIC50?
Response given: 9.08

Challenge: Need pIC50 of CCC1(n2nc(Nc3ccc(C(C)(OC)C(F)(F)F)cc3)c3c(=O)[nH]ccc32)CCN(C(=O)OC(C)(C)C)CC1 (stereo not drawn) , thanks.
Response given: 8.36
